system: RPMI-8226 leukemia; test: NCI-60 one-dose screen, 48 h; conditions: 10 µM unless noted
About 83,000 compounds went through this panel and 20% of them were active in at least one assay; those are over-represented in the sample as a whole. Active and inactive are the calls of the source. How the source made its calls: active means growth percent below 10; inactive means the rest.
Permitted responses: True for active, False for inactive

Consider the following illustrative entries.
| compound | system tested | assigned label |
| --- | --- | --- |
| CCOC(=O)c1nc2c3ccccc3ccn2c1C(=O)OC | RPMI-8226 leukemia | False |
| C[C@@H](NC(=O)[C@@H](CC(=O)N1CCC(N2CCCCC2)CC1)N1C(=O)[C@@H](N2C(=O)OC[C@@H]2c2ccccc2)[C@H]1/C=C/c1cccc(Cl)c1)c1ccccc1 | RPMI-8226 leukemia | False |
| N#Cc1c(Cl)nc(SCC2CO2)nc1-c1ccccc1 (stereo not drawn) | RPMI-8226 leukemia | False |

QUERY: Which result was noted for this compound in the test: `C=C(C)[C@@H]1CC[C@]2(C(=O)NCCNCCNCCN)CC[C@]3(C)[C@H](CC[C@@H]4[C@@]5(C)CCC(=O)C(C)(C)[C@@H]5CC[C@]43C)[C@@H]12`
RESULT: True

QUERY: Which result was noted for this compound in the test: CCOC(=O)C1=C(C(=O)c2ccc(Br)cc2)C(c2ccc(Br)cc2)NC(=S)N1 (stereo not drawn)
RESULT: False

QUERY: Which result was noted for this compound in the test: COc1ccccc1S(=O)Nc1ccccc1 (stereo not drawn)
RESULT: False

QUERY: Which result was noted for this compound in the test: `CCOC(=O)/C(C#N)=C(\C)CCc1ccccc1`
RESULT: False

QUERY: Which result was noted for this compound in the test: `CCN(CC)c1ccc(/C=C/c2ccc3cc(C)ccc3[n+]2CC)cc1`
RESULT: True

QUERY: Which result was noted for this compound in the test: `O=C(Nc1cccnc1)c1ccc2ccc3ccc(C(=O)Nc4cccnc4)nc3c2n1`
RESULT: False
